# test-target: DYRK1A (human)
# measurement-protocol: radiometric filter-binding kinase assay, Kinase HotSpot
# condition-parameters: compound 0.5 µM; ATP 10 µM
value-type: residual activity (%)
Numeric only. Scale: %

mol_smiles=N#C/C(=C(/N)Sc1ccc(N)cc1)c1ccccc1C(F)(F)F value_type="residual activity" measured_result=93.9
mol_smiles=CCC(=O)Nc1ccc2ncnc(Nc3cccc(Br)c3)c2c1 value_type="residual activity" measured_result=89.2
mol_smiles=CC(=O)c1ccc(N2CCOCC2)cc1O value_type="residual activity" measured_result=98
mol_smiles=CC#CC(=O)Nc1cc2c(Nc3ccc(F)c(Cl)c3)ncnc2cn1 value_type="residual activity" measured_result=96.4
mol_smiles=Oc1cccc(-c2nc(N3CCOCC3)c3oc4ncccc4c3n2)c1 value_type="residual activity" measured_result=94.3

Give reported residual activity value for COc1ccc2c(c[n+](C)c3c4cc5c(cc4ccc23)OCO5)c1OC
103

Give reported residual activity value for CCN(CC)C(=O)c1ccc(Nc2nc(OCC3CCCCC3)c3nc[nH]c3n2)cc1
91.9

Give reported residual activity value for Cc1ccc(NC2=CC(=O)c3sc(C)nc3C2=O)cc1
103

Give reported residual activity value for CC[n+]1c(/C=C/N(C)c2ccccc2)n(-c2ccccc2)c2ccc(-c3nc4ccccc4s3)cc21
96.7

Give reported residual activity value for O=c1cc(N2CCOCC2)oc2c1ccc1ccccc12
79

Give reported residual activity value for Nc1ncnc2c1c(-c1ccc(Oc3ccccc3)cc1)cn2C1CCCC1
99.1
